Hey, just so you know, these numbers are from patent US5262417A.

Each entry below carries its reported zone of inhibition at 1 µg/mL.
Test system: Staphylococcus aureus UC 80 (SA)
Test: Dip disk (disk-diffusion) assay, disks loaded with 0.05 ml
Assay type: cell-based
Conditions: Staphylococcus aureus, UC80; 1.0 mcg/ml, 0.05 ml per disk; read-out: Growth Inhibition zone, SA
metric: zone of inhibition at 1 µg/mL (mm)

{"molecule": "COC(=O)/C=C(\\C(=O)OC)N1CCN(c2c(F)cc3c(=O)c(C(=O)O)cn(-c4ccc(F)cc4)c3c2F)CC1", "observed": 22}
{"molecule": "COC(=O)/C=C(\\C(=O)OC)N1CCN(c2c(F)c(N)c3c(=O)c(C(=O)O)cn(C4CC4)c3c2F)CC1", "observed": 27}
{"molecule": "COC(=O)/C=C(/NC1CCN(c2c(F)cc3c(=O)c(C(=O)O)cn(-c4ccc(F)cc4F)c3c2F)C1)C(=O)OC (centres unmarked)", "observed": 32}
{"molecule": "COC(=O)/C=C(\\C(=O)OC)N1CCN(c2c(F)cc3c(=O)c(C(=O)O)cn(C4CCC4)c3c2F)CC1", "observed": 22}
{"molecule": "COC(=O)/C=C(\\C)NC1CCN(c2c(F)cc3c(=O)c(C(=O)O)cn(C4CC4)c3c2F)C1 (centres unmarked)", "observed": 23}
